biological target: long isoform of human D2 receptor (Homo sapiens, UniProt P14416); assay: Arrestin Antagonist Assay (DRD2L PathHunter CHO-K1 cells, vs EC80 dopamine); conditions: CHO-K1, read-out: β-arrestin (antagonist mode) Imax
Sequence (P14416 whole entry, canonical isoform): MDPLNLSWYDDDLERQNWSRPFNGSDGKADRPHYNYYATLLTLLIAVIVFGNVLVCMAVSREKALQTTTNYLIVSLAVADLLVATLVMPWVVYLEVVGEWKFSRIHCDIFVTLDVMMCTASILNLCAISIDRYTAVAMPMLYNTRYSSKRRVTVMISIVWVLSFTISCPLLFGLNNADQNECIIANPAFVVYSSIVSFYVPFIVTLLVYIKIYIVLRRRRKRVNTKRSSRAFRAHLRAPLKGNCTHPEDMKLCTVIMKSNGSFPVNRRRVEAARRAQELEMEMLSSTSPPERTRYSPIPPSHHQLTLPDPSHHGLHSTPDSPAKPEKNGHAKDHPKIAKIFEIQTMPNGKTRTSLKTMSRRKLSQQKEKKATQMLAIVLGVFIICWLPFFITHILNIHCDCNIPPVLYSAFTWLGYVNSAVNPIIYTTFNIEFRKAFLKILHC
Record form. Attribute: Emax. Fill in for each entry.

Guide cases for Emax, answers given:
{"columns": ["chemical string", "assayed system", "endpoint name", "observed value"],
 "data": [
  ["Oc1cccc2ccc(OCCCCN3CCN(c4cccc5ccccc45)CC3)nc12", "long isoform of human D2 receptor (Homo sapiens, UniProt P14416)", "Emax", "50 to 75%"],
  ["Oc1cccc2ccc(OCCCCN3CCN(c4cccc(Cl)c4Cl)CC3)nc12", "long isoform of human D2 receptor (Homo sapiens, UniProt P14416)", "Emax", "> 75%"]
]}

Each compound below has a reported value. Please supply its Emax.
1. CS(=O)(=O)Nc1cccc(OCCCCN2CCc3ccccc3C2)n1
2. O=C1CCc2ccc(OCCCCN3CCc4nccnc4C3)cc2N1
3. O=c1ccc2ccc(OCCCCN3CCc4ccsc4C3)nc2[nH]1
4. COc1ccc2c(c1)CCN(CCCCOc1ccc3ccc(=O)[nH]c3n1)C2
5. Clc1cccc(N2CCN(CCCCOc3ccc4cn[nH]c4n3)CC2)c1Cl

// result
1: > 75%; 2: 25 to 50%; 3: > 75%; 4: > 75%; 5: > 75%

Each compound below has a reported value. Please supply its Emax.
1. Cc1ccc2c(c1)CN(CCCCOc1ccc3ccc(=O)[nH]c3n1)CC2
2. N#Cc1cccnc1N1CCN(CCCCOc2ccc3cccc(O)c3n2)CC1
3. O=C1CCc2ccc(OCCCCN3CCc4ncncc4C3)cc2N1

// result
> 75%
25 to 50%
25 to 50%

What the record says about N#Cc1ccc2c(c1)CCN(CCCCOc1ccc3ccc(=O)[nH]c3n1)C2 : Emax is > 75%
